These measurements were taken from patent US20250170141A1.

assay: Mouse Pharmacokinetic Studies (50 mg/kg oral gavage, plasma LC-MS/MS); type: in vivo; conditions: male C57BL/6 mice, non-fasted

compound | TBC, mL/min/kg
O=S1(=O)N=C(NCc2ncccc2F)Nc2c(Oc3ccccc3Cl)cc(F)cc21 [Compound 1-264] | 32
CC(c1ccccc1F)c1c(F)ccc2c1NC(NCc1ncccc1F)=NS2(=O)=O (centres unmarked) [Compound 9-1] | 13
C[C@@H](c1ccccc1F)c1c(F)c(F)cc2c1NC(NCc1ncccc1F)=NS2(=O)=O [Compound 10-6A] | 11
C[C@H](c1ccccc1F)c1c(F)c(F)cc2c1NC(NCc1ncccc1F)=NS2(=O)=O [Compound 10-6B] | 33
O=S1(=O)N=C(NCc2ncccc2F)Nc2c1ccc(F)c2Oc1ccccc1Cl [Compound 2-1] | 8.8

====

Target: human MRGPRX2 (Homo sapiens)
Construct: expressed in transfected cells; host or cells: CHO cells, stably transfected (G418 and Hygromycin B selection)
Sequence (Q96LB1 1-330): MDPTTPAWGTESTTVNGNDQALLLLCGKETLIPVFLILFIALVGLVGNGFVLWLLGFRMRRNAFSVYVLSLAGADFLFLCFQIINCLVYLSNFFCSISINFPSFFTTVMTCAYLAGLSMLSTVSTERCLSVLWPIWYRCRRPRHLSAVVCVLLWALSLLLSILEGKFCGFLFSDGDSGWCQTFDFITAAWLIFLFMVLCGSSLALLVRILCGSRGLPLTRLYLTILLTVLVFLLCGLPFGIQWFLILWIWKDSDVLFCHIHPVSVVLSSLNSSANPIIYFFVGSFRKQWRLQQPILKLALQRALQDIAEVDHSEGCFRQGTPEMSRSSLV
Assay: MRGPRX2 activity: IP-One Gq HTRF assay in CHO cells, antagonism versus 0.3 uM Cortistatin-14
Assay type: cell-based
Settings: versus 0.3 uM Cortistatin-14 agonist, CHO cells expressing human MRGPRX2, read-out: MRGPRX2 Antagonist Activity
experimental-readout: IC50

compound | experimental-readout | observed-result
CC(C)(c1ccccc1F)c1cccc2c1NC(NCc1ncccc1Cl)=NS2(=O)=O | IC50 | 501 to 1000 nM
O=S1(=O)N=C(NCc2ccccc2F)Nc2c1cc(F)c(F)c2Cc1ccccc1Cl | IC50 | 100 to 500 nM
Cc1ccc2c(c1Oc1ccccc1Cl)NC(NCc1ncccc1F)=NS2(=O)=O | IC50 | < 100 nM
C[C@H](c1ccccc1F)c1c(F)ccc2c1NC(NCc1ccccc1F)=NS2(=O)=O | IC50 | < 100 nM
O=S1(=O)N=C(NCc2ncccc2Cl)Nc2c(Cc3ccccc3Cl)cccc21 | IC50 | < 100 nM
CC(C)c1ccc(NC2=NS(=O)(=O)c3cc(F)c(F)c(Cc4ccccc4Cl)c3N2)cc1 | IC50 | > 2500 nM
O=S1(=O)N=C(NCc2ncccc2F)Nc2c(/C=C/c3ccccc3F)cccc21 | IC50 | < 100 nM
Cc1c(F)cccc1CNC1=NS(=O)(=O)c2ccc(F)c(C(C)c3ccccc3F)c2N1 (single isomer, unassigned) [Compound 10-3A] | IC50 | < 100 nM

====

Target: human MRGPRX2 (Homo sapiens)
Assay: MRGPRX2 activity: IP-One Gq HTRF assay in CHO cells, antagonism versus 0.3 uM Cortistatin-14
Details: versus 0.3 uM Cortistatin-14 agonist, CHO cells expressing human MRGPRX2, read-out: MRGPRX2 Antagonist Activity
Description: CHO cells stably transfected to express human MRGPRX2 were maintained in an incubator at 37° C. with 5% CO2 and grown in F12 (HAM) media with 10% fetal bovine serum (FBS), 1% Glutamax, 1% penicillin/streptomycin, 800 μg/mL Geneticin (G418), and 300 μg/mL Hygromycin B. Cells were plated in a 384-well assay plate at 20,000 cells per well in 12 μL of Opti-MEM and kept in an incubator overnight. […] The plate was read on a Molecular Devices SpectraMax iD5 plate reader. […]
pIC50: −log10 of the molar value.

molecule | pIC50
COc1cccnc1CNC1=NS(=O)(=O)c2cc(F)c(F)c(Oc3ccccc3Cl)c2N1 | 6.30 to 7.00
Cc1nn(C)cc1C(C)c1c(F)ccc2c1NC(NCc1cccc(F)c1)=NS2(=O)=O (centres unmarked) | > 7.00
O=S1(=O)N=C(NCc2ncccc2F)Nc2c1ccc(F)c2Oc1ccccc1F | 6.30 to 7.00
O=S1(=O)N=C(NCc2cccc(F)n2)Nc2c1cc(F)c(F)c2Cc1ccccc1Cl | 6.30 to 7.00
O=S1(=O)N=C(NCc2ncc(F)cc2F)Nc2c1ccc(F)c2Oc1ccccc1Cl | > 7.00
Cc1cccc(Cc2cccc3c2NC(NCc2ccccc2F)=NS3(=O)=O)c1 | > 7.00
O=S1(=O)N=C(NCc2ncc(F)cc2F)Nc2c(Cc3ccccc3Cl)cccc21 | > 7.00
Cc1cccc(C(C)c2c(F)ccc3c2NC(NCc2cccc(F)c2)=NS3(=O)=O)c1 (centres unmarked) | > 7.00

====

biological target: human MRGPRX2 (Homo sapiens, UniProt Q96LB1); construct: expressed in transfected cells; host or cells: CHO cells, stably transfected (G418 and Hygromycin B selection); assay: MRGPRX2 activity: IP-One Gq HTRF assay in CHO cells, antagonism versus 0.3 uM Cortistatin-14; format: cell-based; settings: versus 0.3 uM Cortistatin-14 agonist, CHO cells expressing human MRGPRX2, read-out: MRGPRX2 Antagonist Activity

compound | IC50
O=C(c1ccccc1Cl)c1cccc2c1NC(NCc1ccccc1F)=NS2(=O)=O | < 0.1 µM
CC(c1ccc(S(C)(=O)=O)cc1)c1c(F)ccc2c1NC(NCc1cccc(F)c1)=NS2(=O)=O (centres unmarked) | 0.1 to 0.5 µM
O=S1(=O)N=C(NCc2ncccc2F)Nc2c1ccc(F)c2Oc1cccc(F)c1F | 0.1 to 0.5 µM
Cc1ccccc1C(C)c1c(F)ccc2c1NC(NCc1cccc(F)c1)=NS2(=O)=O (centres unmarked) | < 0.1 µM
O=S1(=O)N=C(NCc2ccccc2F)Nc2c(Cc3ccccc3Cl)cccc21 | < 0.1 µM
O=S1(=O)N=C(NCc2ccc(F)c(F)c2)Nc2c(Cc3ccccc3Cl)cccc21 | < 0.1 µM
Cc1ccc(CNC2=NS(=O)(=O)c3cccc(Cc4ccccc4Cl)c3N2)cc1C | < 0.1 µM
COc1cc(C)ccc1CNC1=NS(=O)(=O)c2cccc(Cc3ccccc3Cl)c2N1 | 0.1 to 0.5 µM
CC(c1ccc2c(c1)CCCC2)c1c(F)ccc2c1NC(NCc1cccc(F)c1)=NS2(=O)=O (centres unmarked) | 0.1 to 0.5 µM
O=S1(=O)N=C(NCc2ncccc2F)Nc2c1cc(Cl)c(F)c2Oc1ccccc1Cl | 0.501 to 1 µM
O=S1(=O)N=C(NCc2ccccc2F)Nc2c(Cc3cccc(F)c3)cccc21 | < 0.1 µM
O=C(c1ccccc1Cl)c1cccc2c1NC(NCc1ncccc1F)=NS2(=O)=O | 0.1 to 0.5 µM
CC(c1ccc2ccccc2c1)c1c(F)ccc2c1NC(NCc1cccc(F)c1)=NS2(=O)=O (centres unmarked) | 0.1 to 0.5 µM
O=S1(=O)N=C(NCc2cnccc2C(F)(F)F)Nc2c1cc(F)c(F)c2Cc1ccccc1Cl | 0.1 to 0.5 µM
O=S1(=O)N=C(NCc2ncccc2F)Nc2c1cc(F)c(F)c2Cc1ccccc1Cl | 0.1 to 0.5 µM
O=S1(=O)N=C(NCc2ncccc2F)Nc2c1ccc(F)c2Oc1c(F)cccc1F | 0.501 to 1 µM
CC(c1ccc(Oc2ccccc2)cc1)c1c(F)ccc2c1NC(NCc1cccc(F)c1)=NS2(=O)=O (centres unmarked) | 0.501 to 1 µM
CC(c1ccc(F)cc1)c1c(F)ccc2c1NC(NCc1ncccc1F)=NS2(=O)=O (single isomer, unassigned) [Compound 10-4A] | < 0.1 µM
O=S1(=O)N=C(NCc2ncccc2F)Nc2c1ccc(F)c2Oc1c(Cl)cccc1Cl | < 0.1 µM
O=S1(=O)N=C(NCc2ccccc2F)Nc2c(Cc3ccc(Cl)cc3)cccc21 | 0.1 to 0.5 µM
Cc1c(F)cccc1CNC1=NS(=O)(=O)c2ccc(F)c(C(C)c3ccccc3F)c2N1 (centres unmarked) [Compound 9-6] | < 0.1 µM
C[C@H](c1ccccc1F)c1c(F)ccc2c1NC(NCc1ccc3c(cnn3C)c1)=NS2(=O)=O | < 0.1 µM
O=S1(=O)N=C(NCc2ccncc2Cl)Nc2c(Cc3ccccc3Cl)cccc21 | < 0.1 µM
CC(c1ccccc1F)c1c(F)ccc2c1NC(NCc1cc(F)ccc1F)=NS2(=O)=O (centres unmarked) | < 0.1 µM
O=S1(=O)N=C(NCc2cccc(F)n2)Nc2c1ccc(F)c2Oc1ccccc1Cl | < 0.1 µM
O=S1(=O)N=C(NCc2ccccc2Cl)Nc2c(Cc3ccccc3Cl)cccc21 | < 0.1 µM
O=S1(=O)N=C(NCc2cccnc2Cl)Nc2c(Cc3ccccc3Cl)cccc21 | < 0.1 µM
C=C(c1ccccc1F)c1c(F)ccc2c1NC(NCc1ncccc1F)=NS2(=O)=O | < 0.1 µM
C=C(c1ccccc1F)c1cccc2c1NC(NCc1ncccc1Cl)=NS2(=O)=O | < 0.1 µM
CC(C)(C)c1cccc(Cl)c1Oc1c(F)ccc2c1NC(NCc1ncccc1F)=NS2(=O)=O | < 0.1 µM
CC(c1ccccc1F)c1c(F)ccc2c1NC(NCc1cccc(F)c1)=NS2(=O)=O (centres unmarked) [Compound 9-4] | < 0.1 µM
CC(c1cccc(N(C)C)c1)c1c(F)ccc2c1NC(NCc1cccc(F)c1)=NS2(=O)=O (centres unmarked) | 0.1 to 0.5 µM
